// provenance: the supplement of paper PMC3334620

# PBM E-score per entry
# target entity: Upc2 (UniProt Q12151)
# Sequence: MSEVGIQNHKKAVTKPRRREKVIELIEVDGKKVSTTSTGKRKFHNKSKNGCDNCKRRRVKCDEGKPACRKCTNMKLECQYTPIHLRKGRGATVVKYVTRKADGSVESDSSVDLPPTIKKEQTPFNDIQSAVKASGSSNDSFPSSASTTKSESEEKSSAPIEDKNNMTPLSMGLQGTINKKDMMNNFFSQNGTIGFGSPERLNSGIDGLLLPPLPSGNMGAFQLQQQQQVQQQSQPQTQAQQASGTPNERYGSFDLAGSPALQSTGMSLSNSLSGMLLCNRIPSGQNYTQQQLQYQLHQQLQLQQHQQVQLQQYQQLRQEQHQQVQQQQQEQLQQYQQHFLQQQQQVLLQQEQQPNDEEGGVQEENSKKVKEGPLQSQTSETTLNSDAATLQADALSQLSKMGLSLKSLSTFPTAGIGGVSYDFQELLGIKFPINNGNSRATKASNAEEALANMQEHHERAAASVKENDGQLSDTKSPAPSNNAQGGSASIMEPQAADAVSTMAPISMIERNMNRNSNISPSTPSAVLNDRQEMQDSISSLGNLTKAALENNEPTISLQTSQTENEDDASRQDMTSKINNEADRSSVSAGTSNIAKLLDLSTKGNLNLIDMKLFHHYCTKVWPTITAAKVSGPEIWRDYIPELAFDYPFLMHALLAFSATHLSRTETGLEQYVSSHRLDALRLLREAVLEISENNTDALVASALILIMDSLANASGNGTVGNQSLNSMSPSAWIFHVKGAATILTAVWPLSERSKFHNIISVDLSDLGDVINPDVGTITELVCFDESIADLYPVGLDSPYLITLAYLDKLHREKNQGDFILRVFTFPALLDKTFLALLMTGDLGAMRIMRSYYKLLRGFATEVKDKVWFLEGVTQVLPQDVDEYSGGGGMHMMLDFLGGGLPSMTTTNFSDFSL
# protocol notes: PBM E-score (8-mer binding enrichment) (E-score (-0.5 to 0.5)); higher = stronger / more preferred TF binding
# experimental setup: protein concentration: 200 nM; construct: GST-full length
In all, about 33,000 sequences were measured (“E-score (-0.5 to 0.5)”: median about -0.043, highest 2% from about 0.37 on). This is one part of a sample in which the highest values are shown more often than they occur.
experimental readout: PBM E-score

1. ACCTGGGA
-0.245
2. AAGAGGCT
-0.257
3. CCGCAGCA
-0.267
4. CCAAGTGG
-0.186
5. ACCGAGGT
0.169
6. AATGGAGA
-0.179
7. GAACGAGC
0.465
8. CTCAACAC
-0.0233
9. GCAATCTA
-0.0928
10. ATTCCATC
0.0445
11. CCCTTCGG
-0.0969
12. CACGATCA
-0.0545
13. CCTACGAC
0.232
14. CCCTATAA
-0.00945
15. GGATGGAA
-0.0401
16. AATCGAGC
0.286
17. CACGAACG
0.343
18. GCACGAGA
0.0181
19. AACGAGGC
0.444
20. CCCTCTCC
-0.339
21. ACAAGCCT
-0.166
22. TACGAGGA
0.464
23. CACGATCG
0.125
24. CGGGCTAG
-0.117
25. ATCGATCA
0.0619
26. CGGAGAAA
0.158
27. CGTATATC
0.454
28. GCAATTAC
-0.0538
29. CACGAGGC
0.116
30. TACGATCA
0.422
31. TCCGAACA
-0.0096
32. AGGAGGCG
-0.326
33. GGACGAGA
-0.00291
34. ACTACGAC
0.272
35. TCAACGAA
0.249
36. GCCGTAAA
0.385
37. AGCGATCA
0.11
38. TTAACGAA
0.448
39. AACGAACA
0.426
40. GACGAACC
0.0416
41. CGGGAACG
0.404
42. CAGGAACC
-0.161
43. CCCGTAAA
0.381
44. AGTATATC
0.0604
45. GACCCCAA
-0.0347
46. AACCGAGC
0.325
47. AGATACGA
0.454
48. AGTATATA
0.282
49. CGTGCGAA
0.214
50. GAAATTCC
-0.186
51. CTGCTCAC
0.00302
52. ACACGACG
0.267
53. CCGAGGCG
0.129
54. AAAAGACA
0.0436
55. CACGAACC
0.101
56. TACGAACA
0.452
57. AAAGAGGT
-0.182
58. TGTCGACA
0.063
59. CCTACGAA
0.228
60. ATCCAGCG
-0.0436
61. CCGAGGCA
-0.0905
62. GGATACGA
0.463
63. AACGATCG
0.383
64. CGATACGA
0.464
65. GGTGTCAA
-0.169
66. CGGTCACA
0.0569
67. AAGGAACG
0.347
68. GCTACGAA
0.395
69. GACGATCA
-0.0322
70. AGCGCAAC
0.149
71. ATAAAAAG
0.0686
72. CATATATC
0.114
73. GCACGAGC
-0.0167
74. AGGGAACG
0.39
75. GACGGTGC
0.0569
76. ATGTCATG
-0.0317
77. TCCCTCGA
-0.0965
78. ACTTGTCA
-0.235
79. CATAATCC
-0.0711
80. ACCGCTTC
-0.203
81. ATCGATCG
0.136
82. CAACAAGC
-0.163
83. CCGCTTCA
-0.0583
